Cited source: the RNAGym collection of RNA variant scans (doi:10.7554/elife.90254)

B1: LINE1-full (parent)
chain: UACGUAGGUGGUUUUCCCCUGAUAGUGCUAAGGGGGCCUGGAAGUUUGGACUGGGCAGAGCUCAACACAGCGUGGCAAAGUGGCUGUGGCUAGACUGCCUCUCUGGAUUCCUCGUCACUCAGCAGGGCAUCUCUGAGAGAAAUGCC

Variants of: B1
Test: self-cleavage, relative activity (ratio to wild type); higher = more cleavage; in vitro, sequencing; the parent is a self-cleaving ribozyme
Is self-cleavage at least 0.6? Then criterion met. If not, criterion not met.

Here's what some known entries look like.
Mutation Name | Answer Label
G7U A107G | criterion met
G105A A129C | criterion met

Ask | Hello, I need to know if U23C A42G has measured self-cleavage not below 0.6. Thanks!
Reply | criterion met

Ask | Textbook exercise: given the entry U85G U108C , state whether its self-cleavage is greater than or equal to 0.6.
Reply | criterion not met

Ask | Item G4C G135A with self-cleavage of 0.6 or above?
Reply | criterion not met

Ask | Quick check, self-cleavage >= 0.6? G21A U115G
Reply | criterion met

Ask | Determine whether measured self-cleavage meets or exceeds 0.6 for G44A U91C
Reply | criterion met

Ask | Identify whether the reported self-cleavage of the following variant is 0.6 or greater: A78G G97U
Reply | criterion not met

Ask | Given the entry U14G A42G , answer whether its self-cleavage meets or surpasses 0.6.
Reply | criterion met

Ask | Has U39A C90G a recorded self-cleavage greater than or equal to 0.6?
Reply | criterion not met

Ask | Say whether A43G A78G shows self-cleavage of 0.6 or more.
Reply | criterion met

Ask | Does A43U C90A have a reported self-cleavage of at least 0.6?
Reply | criterion not met

Ask | Is the recorded value of self-cleavage equal to or greater than 0.6 for this variant? A31U U115C
Reply | criterion met

Ask | Form field: self-cleavage at least 0.6? Entry: U45C U96A
Reply | criterion not met

Ask | # bool: self-cleavage of U104A C120U >= 0.6
Reply | criterion met

Ask | Reported self-cleavage reaches at least 0.6 for A57G C101U ?
Reply | criterion met

Ask | Given U1C A64G , state whether its self-cleavage is at least 0.6.
Reply | criterion not met

Ask | hey, is self-cleavage for this one >= 0.6? A22U A65U
Reply | criterion not met

Ask | Entry G21U C56G : is its self-cleavage no less than 0.6?
Reply | criterion not met

Ask | Is it the case that U96A U104A has self-cleavage reaching or exceeding 0.6?
Reply | criterion not met

Ask | hey, is self-cleavage for this one >= 0.6? A79G G97A
Reply | criterion not met

Ask | Test whether the variant A30G U132G records self-cleavage of 0.6 or higher.
Reply | criterion met

Ask | Could you verify whether the entry U12G A142C shows self-cleavage of no less than 0.6?
Reply | criterion met

Ask | Assess whether reported self-cleavage for A94G U130C sits at 0.6 or higher.
Reply | criterion not met

Ask | Please indicate if the recorded self-cleavage for A30C A57G meets or exceeds 0.6.
Reply | criterion not met

Ask | Hi, just wondering whether A2G G21C shows self-cleavage of 0.6 or higher.
Reply | criterion met

Ask | Answer whether self-cleavage of A65G U115A is greater than or equal to 0.6.
Reply | criterion not met
